Please go through the items and note down their MIC.
System: methicillin-resistant S. aureus SA 3202 (MRSA1)
Experiment: MIC, microtitration broth method
Format: cell-based
Conditions: Staphylococcus aureus; MRSA1 = SA 3202; 24 h, 37 °C
A complete answer gives the number followed by the unit.

Past entries and their recorded results:
* C#CCOc1ccc2c(c1)Sc1c[n+](C)c3ccccc3c1N2 [Compound 6g] | 45.1 µM
* CN(C)[C@@H]1C(O)=C(C(N)=O)C(=O)[C@@]2(O)C(O)=C3C(=O)c4c(O)cccc4[C@@](C)(O)[C@H]3C[C@@H]12 [TTC, tetracycline, reference compound] | 36.1 µM
* C=CCOc1ccc2c(c1)Nc1c(c[n+](C)c3ccccc13)S2 [Compound 6e] | 44.8 µM

Turning now to a further record.
Record C#CCOc1ccc2c(c1)Nc1c(c[n+](C)c3ccccc13)S2 [Compound 6h] . Reported MIC: 90.1 µM
